EXPERIMENTAL TARGET: T1, PUF4 RNA-binding domain (Saccharomyces cerevisiae, UniProt P25339 537-888)
T1 sequence: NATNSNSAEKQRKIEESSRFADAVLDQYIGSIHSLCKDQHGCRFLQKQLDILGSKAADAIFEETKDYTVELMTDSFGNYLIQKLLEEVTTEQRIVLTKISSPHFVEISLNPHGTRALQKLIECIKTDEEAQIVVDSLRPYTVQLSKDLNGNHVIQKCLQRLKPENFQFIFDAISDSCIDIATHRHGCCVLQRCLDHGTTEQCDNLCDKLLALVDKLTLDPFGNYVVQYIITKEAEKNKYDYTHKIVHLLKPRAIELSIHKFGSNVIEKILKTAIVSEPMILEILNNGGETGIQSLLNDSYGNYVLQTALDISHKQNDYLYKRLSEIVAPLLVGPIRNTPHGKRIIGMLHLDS
PROCEDURE DETAILS: Mg; RNA-MaP; 20 mM Na-HEPES pH 7.4, 30 mM KOAc, 0.75 mM MgCl2, 0.1% Tween-20, 5% glycerol, 0.1 mg/mL BSA, 2 mM DTT; 25 C; 0.0125-409.6 nM protein
TEST CONDITIONS: tags: N-His6-TEV cleaved; C-SNAP kept, Cy3B-labelled; label: tethered on chip by stalled RNA polymerase
Classification by Kd | ranges: 1 (below 10 nM), 2 (10 nM to below 100 nM), 3 (100 nM or more)

Example results:
BINDER	DISCRETE LABEL
Id_ii_S2_P4E.2_K4.1_C4.2_[C-2A]_H4.1_A4.1_F4.1_T4.2_[G10T]_[T11C] (ssRNA) RNA: UUUGAUUAAUAUGAUAUCGUUCUUUCUAUUGUAUAUUAUCUUCUUUCUCGAUAUCAUAUUAAUCUUU	1
UCUCUUUCUGUAUAUUACCUCUCUU (ssRNA) [Id_ii_S1_P4E.2_K4.1_C4.2_[C-2T]_[T-1C]_H4.1_A4.1_F4.1_T4.2_[G10C]_[T11C]]	1
UCUCUUCCUAUAUUAUUACUUCUCUU (ssRNA) [Id_ii_S1_P5E.3_K5.2_C5.2_[T-1C]_H5.2_A5.1_F5.1_T5.2_[T11C]_[A12T]]	3

Query: Form: Item = Ic_S4_P4E.1_K4.1_C4.1_H4.1_A4.1_[T5G]_[A6C]_[T7A]_F4.1_[A9G]_T4.1 (ssRNA) RNA: UUUGACAACUGAUCGUUCUUUCUUGUAGCAUGUUCUUUCUCGAUCAGUUGUCUUU ; Class = ?
Result: 2

Query: Repeat with UCUCUUUGUAAAAUUGUCUCUU (ssRNA) [Ic_S1_P5E.1_K5.1_C5.1_H5.1_A5.1_[T5A]_[T6A]_F5.1_[A10G]_T5.1]
Result: 2

Query: Now the same for ACAAACUUACACUAUAAAACAAAC (ssRNA) [Id_ii_S3_P3E.4_K3.3_C3.2_[C-2T]_H3.3_A3.1_F3.1_T3.2_[T9A]]
Result: 3

Query: Follow-up entry: UCUCUUUGUACAUUCUCUCUU (ssRNA) [Ib_S1_P4E.1_K4.1_C4.1_H4.1_A4.1_[T5C]_F4.1_[A9C]_T4.1]
Result: 1

Query: Follow-up item: UCUCUUACACACUAUAUUUCUCUU (ssRNA) [Id_ii_S1_P3E.4_K3.3_C3.2_[C-2A]_[T-1C]_H3.3_A3.1_F3.1_T3.2_[A10T]]
Result: 3

Query: And the next one, UCUCUUUGUAUUAUUCUCUU (ssRNA) [Ic_S1_P3E.1_K3.1_C3.1_H3.1_A3.1_[A6T]_F3.1_[T7A]_[A8T]_T3.1] ?
Result: 2
